Target: Histamine H2 receptor (Cavia porcellus)
Sequence (P47747 whole entry): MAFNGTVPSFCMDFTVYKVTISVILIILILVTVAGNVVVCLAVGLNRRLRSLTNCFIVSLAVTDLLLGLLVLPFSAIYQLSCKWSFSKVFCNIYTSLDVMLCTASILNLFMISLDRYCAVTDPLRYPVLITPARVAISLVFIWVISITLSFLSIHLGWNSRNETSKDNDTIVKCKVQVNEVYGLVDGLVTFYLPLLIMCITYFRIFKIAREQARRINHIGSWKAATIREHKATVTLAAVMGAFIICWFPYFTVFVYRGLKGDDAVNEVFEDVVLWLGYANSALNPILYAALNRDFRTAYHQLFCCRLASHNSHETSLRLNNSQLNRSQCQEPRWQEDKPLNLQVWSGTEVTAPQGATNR
Assay: Compound is evaluated for histamine H2 receptor agonistic activity in guinea pig cerebral cortex using [3H]tiotidine as radioligand
pKd: −log10 of the molar value.
MEASUREMENT KIND: pKd

structure_notation=Cc1nc(N)sc1CCN measurement_kind=pKd value=5.30
structure_notation=NCCc1cnc(N)s1 measurement_kind=pKd value=4.82
structure_notation=NCCc1csc(N)n1 measurement_kind=pKd value=3.96
structure_notation=CN(C)CCCSC(=N)N measurement_kind=pKd value=4.58
structure_notation=Cc1ncsc1CCN measurement_kind=pKd value=3.45
structure_notation=Cc1nc(C)c(CCN)s1 measurement_kind=pKd value=3.76
